B1: KRT34 (parent)
chain: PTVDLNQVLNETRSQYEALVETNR

variants of: B1; assay: protein stability index of a GFP-peptide fusion (GPS, HEK-293T) (PSI 1-6); higher = more stable; conditions: c terminus: a fixed tail appended;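 further: lentivirally expressed fusions sorted by FACS into six bins by GFP to DsRed ratio, PSI derived from sequencing read proportions per bin multiplied by bin number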
Catalogue of variants with associated protein stability index
Give only the figure.

ALTERATION	REPORTED_VALUE
T2Q	2.71
L9F	3.45
N23Q	4.52
L5W	3.3
E17N	4.05
L19N	5.01

Indicate its recorded protein stability index; the variant in question is L19E
5.63

// fetch protein stability index given entry V8S
4.18

Return value of protein stability index for input R24E , no commentary.
3.88

Give protein stability index for R24S
4.81

Fill in protein stability index for record Q7K
3.98
